assayText: qHTS of TDP-43 Inhibitors; further: nearly all actives have a fitted effect of over 50% in size
statedConditions: TDP-43 expressing yeast growth rescue, BacTiter-Glo, 24 h; series mostly up to 46.1 µM
The whole screen tested about 410,000 compounds, of which about 7,200 (1.8%) were called active. Roughly 7% stayed inconclusive and do not appear here. The call rests on the fitted dose curve; in most records, active means well fitted activation curve with a large enough effect; inconclusive means small, poorly fitted or top-dose-only effect, or another doubt; inactive means no such curve, though single readings can be large or run the other way. The sample as a whole holds a higher share of actives than the screen did.
Use one of these outcomes when replying: true (1) for active, false (0) for inactive

What outcome does the record of this test show for CCOc1ccc(N(CC)S(=O)(=O)N2CCCC(C(=O)NCc3ccc(Cl)cc3)C2)cc1 (stereo not given) ?
false (0)

What outcome does the record of this test show for CC(=O)Nc1ccc(-c2ccnc3c2CC(C(=O)NC(C)C)O3)cc1 (stereo not given) ?
false (0)

What outcome does the record of this test show for COc1ccc(NC(=O)C2Cc3c(-c4cccc(NC(C)=O)c4)ccnc3O2)cc1OC (stereo not given) ?
false (0)

What outcome does the record of this test show for Cc1cccc(NC(=O)CN(c2ccc(C(C)C)cc2)S(=O)(=O)c2c(C)nn(C)c2C)c1C ?
false (0)

What outcome does the record of this test show for COc1ccc(NC(=O)C2Cc3c(-c4ccc(Cl)cc4)ccnc3O2)cc1 (stereo not given) ?
true (1)
